B1: Caulobacter ParB omega fusion; a variant is named by its letters at X, in order, B8GW30 (parent)
chain: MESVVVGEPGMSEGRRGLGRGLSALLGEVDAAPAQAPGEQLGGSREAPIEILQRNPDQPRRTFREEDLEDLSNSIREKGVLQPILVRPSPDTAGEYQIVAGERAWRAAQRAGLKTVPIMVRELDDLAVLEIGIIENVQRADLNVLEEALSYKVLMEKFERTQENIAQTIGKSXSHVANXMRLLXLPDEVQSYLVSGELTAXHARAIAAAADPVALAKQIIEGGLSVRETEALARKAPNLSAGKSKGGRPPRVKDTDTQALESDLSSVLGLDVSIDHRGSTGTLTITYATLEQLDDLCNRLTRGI

# Variants of: B1
# assay overview: one-hybrid fitness for binding parS DNA (scaled: cognate 1, non-cognate 0); higher = stronger binding
# study conditions: with parS DNA site
Whole data set: some 81,000 sequences, median “one-hybrid fitness for binding parS DNA” near -0.17, cut for the highest 2% near 0.51. This is one part of a sample in which the highest values are shown more often than they occur.
# one-hybrid fitness for binding parS DNA >= 0.5 gives label 1, anything below gives label 0

mut	category
RWNC	label 1
RYGA	label 1
VPRP	label 0

Quick check: does `RVNC` have one-hybrid fitness for binding parS DNA greater than or equal to 0.5?
label 1

Quick check: does `RWDY` have one-hybrid fitness for binding parS DNA greater than or equal to 0.5?
label 0

Quick check: does `RVNE` have one-hybrid fitness for binding parS DNA greater than or equal to 0.5?
label 0

Quick check: does `QDNF` have one-hybrid fitness for binding parS DNA greater than or equal to 0.5?
label 0

Quick check: does `SYQA` have one-hybrid fitness for binding parS DNA greater than or equal to 0.5?
label 0

Quick check: does `RYHA` have one-hybrid fitness for binding parS DNA greater than or equal to 0.5?
label 1

Quick check: does `RHVM` have one-hybrid fitness for binding parS DNA greater than or equal to 0.5?
label 0
